# System: A498 renal
# EXPERIMENT SUMMARY: NCI tumour cell line growth inhibition, 48 h
Please provide measured TGI for the entries that follow.

[[record]]
molecule = "Cn1c(=O)c2/c(n(C)c1=O)=N\\C=c1\\c(=O)n(C)c(=O)n(C)\\c1=N\\C=2"
property_label = "TGI"
result = "> 100 µM"

[[record]]
molecule = "Cc1c(C(=O)O)n2cnnc2c2ccccc12"
property_label = "TGI"
result = "> 100 µM"

[[record]]
molecule = "C=CCC(C(=O)Nc1cccc2[nH]cnc12)C(=O)OCC (centres undefined)"
property_label = "TGI"
result = "> 100 µM"

[[record]]
molecule = "C=CC1=C(C)C2=NC1=CC1=NC(=C(CC)/C1=C\\O)C=C1N=C3C(=C1C)C(=O)[C@H](C(=O)OC)C3=C1NC(=C2)[C@@H](C)[C@@H]1CCC(=O)O"
property_label = "TGI"
result = "> 100 µM"

[[record]]
molecule = "O=C(/C=C\\c1ccccc1)N1CCc2ccccc2C1"
property_label = "TGI"
result = "> 100 µM"

[[record]]
molecule = "CCN(CC)CCNC(=O)c1cccc2nc3ccccc3nc12"
property_label = "TGI"
result = "30.9 µM"

[[record]]
molecule = "CC(=O)/C(=C/N1CCNC1=S)C(=O)Nc1ccccc1C"
property_label = "TGI"
result = "> 100 µM"

[[record]]
molecule = "CC(=O)N/C(=C\\c1ccc(Cc2nc3c([nH]2)C(=O)c2ccccc2C3=O)cc1)c1nc2c([nH]1)C(=O)c1ccccc1C2=O"
property_label = "TGI"
result = "> 100 µM"

[[record]]
molecule = "CC1(C)CCc2c(c(N=Nc3ccc(F)cc3)c3ccccc3c2O)O1"
property_label = "TGI"
result = "88.8 µM"

[[record]]
molecule = "O=c1[nH]c(=S)c2cc3c(=S)[nH]c(=O)n(CCO)c3nc2n1CCO"
property_label = "TGI"
result = "> 100 µM"


Kindly give each listed record's TGI.
1. CC(=O)[CH-]C(=O)c1ccccc1.CC(=O)[CH-]C(=O)c1ccccc1.CC[O-].O=C1c2ccccc2C(=O)c2c1ccc(O)c2[O-].[Ti+4]
2. O=C(CCC(=O)C1CCC/C1=N/O)Nc1ccc(Cl)cc1 (centres undefined)

Out:
83.5 µM
> 100 µM

Please give TGI for each item listed below.
1. CC(O)c1cc(C(=O)N[C@@H](C)Cn2ccc(-c3ccc(C#N)c(Cl)c3)n2)n[nH]1 (some centres undefined)
2. [N-]=[N+]=Nc1c([N+](=O)[O-])c(=O)n2c3c(cccc13)CCC2

Out:
55.9 µM
50.4 µM
